- tested_target: Human recombinant PDE2A (hPDE2A) (Homo sapiens, UniProt O00408)
- Construct: made in house; host or cells: Sf9 insect cells (baculovirus)
- Sequence (O00408 whole entry): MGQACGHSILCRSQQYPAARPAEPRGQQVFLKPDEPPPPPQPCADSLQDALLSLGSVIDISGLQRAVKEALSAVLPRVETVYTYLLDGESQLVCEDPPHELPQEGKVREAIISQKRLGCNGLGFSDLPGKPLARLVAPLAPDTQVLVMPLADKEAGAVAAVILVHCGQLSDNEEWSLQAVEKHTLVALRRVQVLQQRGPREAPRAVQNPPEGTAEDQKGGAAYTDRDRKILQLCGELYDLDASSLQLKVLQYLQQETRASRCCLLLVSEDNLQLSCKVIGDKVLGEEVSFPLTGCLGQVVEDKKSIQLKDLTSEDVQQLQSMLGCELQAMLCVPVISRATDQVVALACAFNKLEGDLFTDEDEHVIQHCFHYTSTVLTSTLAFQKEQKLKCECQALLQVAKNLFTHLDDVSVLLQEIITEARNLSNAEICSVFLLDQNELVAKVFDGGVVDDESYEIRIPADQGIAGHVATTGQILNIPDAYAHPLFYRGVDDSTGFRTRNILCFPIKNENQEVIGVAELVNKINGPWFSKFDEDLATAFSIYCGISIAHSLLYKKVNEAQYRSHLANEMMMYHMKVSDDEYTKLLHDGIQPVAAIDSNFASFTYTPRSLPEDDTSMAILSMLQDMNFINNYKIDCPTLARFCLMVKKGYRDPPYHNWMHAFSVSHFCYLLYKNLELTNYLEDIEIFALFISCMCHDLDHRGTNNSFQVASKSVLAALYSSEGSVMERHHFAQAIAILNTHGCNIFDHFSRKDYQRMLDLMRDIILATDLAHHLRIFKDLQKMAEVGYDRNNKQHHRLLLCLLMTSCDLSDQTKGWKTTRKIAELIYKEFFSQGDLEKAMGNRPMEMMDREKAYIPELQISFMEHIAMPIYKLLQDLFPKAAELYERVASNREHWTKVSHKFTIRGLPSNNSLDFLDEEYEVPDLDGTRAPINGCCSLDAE
- assay_summary: In vitro assay PDE2A (SPA, 3H-cGMP)
- Format: biochemical
- test_context: read-out: pIC50 PDE2 (converted)
test_readout: IC50 (µM)
Give just the number in µM; leave the unit off.

The cases that follow already have their IC50 on record.
>>> result_value("Cc1nc2ccc(OC(C)(F)F)cc2n2c(-c3ccccc3Cl)nnc12")
0.00389
>>> result_value("Cc1nc2ccc(CN3CCC(N(C)C)CC3)cc2n2c(-c3ccccc3Cl)nnc12")
0.0575
>>> result_value("CCOc1ccc(Cl)c(-c2nnc3c(C)nc4ccc(CN5CCC(F)CC5)cc4n23)c1")
0.0347
>>> result_value("Cc1nc2ccc(CN3CCCC3)cc2n2c(-c3cncc(OCC4CC4)c3)nnc12")
0.275
>>> result_value("CCOCc1cncc(-c2nnc3c(C)nc4ccc(CN5CCOCC5)cc4n23)c1")
0.0295

The reported value for "CCCCOc1ccc(Cl)c(-c2nnc3c(C)nc4ccc(CN5CCC(O)CC5)cc4n23)c1" in terms of IC50 is 0.0191

The reported value for "Cc1cncc(-c2nnc3c(C)nc4ccc(Br)cc4n23)c1" in terms of IC50 is 0.0525

The reported value for "Cc1nc2cc(Br)ccc2n2c(-c3ccccc3Cl)nnc12" in terms of IC50 is 0.0603

The reported value for Cc1nc2ccc(CN3CCOC(CF)C3)cc2n2c(-c3ccccc3Cl)nnc12 (centres unmarked) in terms of IC50 is 0.0049

The reported value for "Cc1ccc(Cl)c(-c2nnc3c(C)nc4ccc(C(=O)NCc5ccccn5)cc4n23)c1" in terms of IC50 is 0.00178

The reported value for "CCCCOc1cncc(-c2nnc3c(C)nc4ccc(CNCC5CC5)cc4n23)c1" in terms of IC50 is 0.0617

The reported value for "CCNC(=O)c1ccc2nc(C)c3nnc(-c4ccccc4F)n3c2c1" in terms of IC50 is 0.00251

----------
- Test system: Apomorphine-induced agitation
- assay_summary: Reversal of Apomorphine-induced Agitation in Rats (APO)
- Format: in vivo, rat
- test_context: oral route; apomorphine 1.0 mg/kg i.v.
test_readout: PO Max effect (cumulative agitation score over 60 min)

The cases that follow already have their PO Max effect (cumulative agitation score over 60 min) on record.
>>> result_value("Cc1ncccc1-c1nnc2c(C)nc3ccc(Br)cc3n12")
17
>>> result_value("CCNC(=O)c1ccc2nc(C)c3nnc(-c4ccccc4)n3c2c1")
21
>>> result_value("C=Cc1ccc2nc(C)c3nnc(-c4ccccc4Cl)n3c2c1")
21
>>> result_value("Cc1nc2ccc(C(=O)NCc3ccccc3)cc2n2c(-c3ccccc3)nnc12")
22

The reported value for "CCOc1ccc(Cl)c(-c2nnc3c(C)nc4ccc(Br)cc4n23)c1" in terms of PO Max effect (cumulative agitation score over 60 min) is 21

----------
- tested_target: Human recombinant PDE2A (hPDE2A) (Homo sapiens, UniProt O00408)
- Construct: made in house; host or cells: Sf9 insect cells (baculovirus)
- assay_summary: In vitro assay PDE2A (SPA, 3H-cGMP)
- Format: biochemical
- test_context: read-out: pIC50 PDE2 (converted)
test_readout: IC50 (nM)
Give just the number in nM; leave the unit off.

The reported value for Cc1nc2ccc(Br)cc2n2c(-c3cncc(Cl)c3)nnc12 [Compound B-171] in terms of IC50 is 117
